Assay: Absorption wavelength of the cyanine dyes in methanol (halo substitution effect)
Format: physicochemical
Settings: Table 2
Reported Metric: λMeOH (nm)

1. COc1cc(F)c(C2=C(/C=C/C3=[N+](CCCCS(=O)(=O)[O-])c4ccc(S(=O)(=O)[O-])cc4C3(C)C)CCC/C2=C\C=C2\N(CCCCS(=O)(=O)[O-])c3ccc(S(=O)(=O)[O-])cc3C2(C)C)c(F)c1.[Na+].[Na+].[Na+] :: 783
2. CC1(C)C(/C=C/C2=C(c3c(F)cccc3F)C(=C/C=C3/N(CCCCS(=O)(=O)[O-])c4ccc(S(=O)(=O)[O-])cc4C3(C)C)/CCC2)=[N+](CCCCS(=O)(=O)[O-])c2ccc(S(=O)(=O)[O-])cc21.[Na+].[Na+].[Na+] :: 782
3. CC1(C)C(/C=C/C2=C(c3c(F)cc(F)cc3F)C(=C/C=C3/N(CCCS(=O)(=O)[O-])c4ccc(S(=O)(=O)[O-])cc4C3(C)C)/CC(C(=O)O)C2)=[N+](CCCS(=O)(=O)[O-])c2ccc(S(=O)(=O)[O-])cc21.[Na+].[Na+].[Na+] (centres unmarked) :: 785
4. CCCCOc1c(F)c(F)c(C2=C(/C=C/C3=[N+](CCCCS(=O)(=O)[O-])c4ccc(S(=O)(=O)[O-])cc4C3(C)C)CCC/C2=C\C=C2\N(CCCCS(=O)(=O)[O-])c3ccc(S(=O)(=O)[O-])cc3C2(C)C)c(F)c1F.[Na+].[Na+].[Na+] :: 790
5. CCCCOc1ccc(F)c(C2=C(/C=C/C3=[N+](CCCCS(=O)(=O)[O-])c4ccc(S(=O)(=O)[O-])cc4C3(C)C)CCC/C2=C\C=C2\N(CCCCS(=O)(=O)[O-])c3ccc(S(=O)(=O)[O-])cc3C2(C)C)c1F.[Na+].[Na+].[Na+] :: 783
6. CC1(C)C(/C=C/C2=C(c3ccccc3F)C(=C/C=C3/N(CCCCS(=O)(=O)[O-])c4ccc(S(=O)(=O)[O-])cc4C3(C)C)/CCC2)=[N+](CCCCS(=O)(=O)[O-])c2ccc(S(=O)(=O)[O-])cc21.[Na+].[Na+].[Na+] :: 772
7. CC1(C)C(/C=C/C2=C(c3ccc(C(=O)O)c(F)c3F)C(=C/C=C3/N(CCCCS(=O)(=O)[O-])c4ccc(S(=O)(=O)[O-])cc4C3(C)C)/CCC2)=[N+](CCCCS(=O)(=O)[O-])c2ccc(S(=O)(=O)[O-])cc21.[Na+].[Na+].[Na+] :: 772
8. CC1(C)C(/C=C/C2=C(c3ccc(C(=O)NCCCCCC(=O)O)c(F)c3F)C(=C/C=C3/N(CCCCS(=O)(=O)[O-])c4ccc(S(=O)(=O)[O-])cc4C3(C)C)/CCC2)=[N+](CCCCS(=O)(=O)[O-])c2ccc(S(=O)(=O)[O-])cc21.[Na+].[Na+].[Na+] :: 773
9. CC1(C)C(/C=C/C2=C(c3cccc(F)c3F)C(=C/C=C3/N(CCCCS(=O)(=O)[O-])c4ccc(S(=O)(=O)[O-])cc4C3(C)C)/CC(C(=O)O)C2)=[N+](CCCCS(=O)(=O)[O-])c2ccc(S(=O)(=O)[O-])cc21.[Na+].[Na+].[Na+] (centres unmarked) [Compound 63a] :: 770
10. CC1(C)C(/C=C/C2=C(c3cccc(CCCCC(=O)O)c3)C(=C/C=C3/N(CCCCS(=O)(=O)[O-])c4ccc(S(=O)(=O)[O-])cc4C3(C)C)/CCC2)=[N+](CCCCS(=O)(=O)[O-])c2ccc(S(=O)(=O)[O-])cc21.[Na+].[Na+].[Na+] :: 766
11. CCCCOc1c(F)cc(F)c(C2=C(/C=C/C3=[N+](CCCCS(=O)(=O)[O-])c4ccc(S(=O)(=O)[O-])cc4C3(C)C)CCC/C2=C\C=C2\N(CCCCS(=O)(=O)[O-])c3ccc(S(=O)(=O)[O-])cc3C2(C)C)c1F.[Na+].[Na+].[Na+] :: 789
